Origin of values: patent US12318452B2

# Tested on: CRBN−/− MOLT4 cells
# PROTOCOL_NOTES: CellTiter-Glo cell viability, 72 hours
# Type: cell-based
# MEASUREMENT_CONDITIONS: Homo sapiens, MOLT-4; MOLT4 CRBN−/− cells, 72 hours, CellTiter-Glo; read-out: Antiproliferative IC50
MEASURED_ATTRIBUTE: pIC50
The scale used: pIC50 is minus the common logarithm of the concentration in molar units.

Prompt line: Name the recorded pIC50 of the item C=CCn1c(=O)c2cnc(Nc3ccc(N4CCN(CCCNc5cccc6c5C(=O)N(C5CCC(=O)NC5=O)C6=O)CC4)cc3)nc2n1-c1cccc(C(C)(C)O)n1 (stereo not shown) in your answer.
Response line: 5.65

---

# STUDY_TARGET: Wee1 (Homo sapiens, UniProt P30291)
# Sequence (P30291 whole entry): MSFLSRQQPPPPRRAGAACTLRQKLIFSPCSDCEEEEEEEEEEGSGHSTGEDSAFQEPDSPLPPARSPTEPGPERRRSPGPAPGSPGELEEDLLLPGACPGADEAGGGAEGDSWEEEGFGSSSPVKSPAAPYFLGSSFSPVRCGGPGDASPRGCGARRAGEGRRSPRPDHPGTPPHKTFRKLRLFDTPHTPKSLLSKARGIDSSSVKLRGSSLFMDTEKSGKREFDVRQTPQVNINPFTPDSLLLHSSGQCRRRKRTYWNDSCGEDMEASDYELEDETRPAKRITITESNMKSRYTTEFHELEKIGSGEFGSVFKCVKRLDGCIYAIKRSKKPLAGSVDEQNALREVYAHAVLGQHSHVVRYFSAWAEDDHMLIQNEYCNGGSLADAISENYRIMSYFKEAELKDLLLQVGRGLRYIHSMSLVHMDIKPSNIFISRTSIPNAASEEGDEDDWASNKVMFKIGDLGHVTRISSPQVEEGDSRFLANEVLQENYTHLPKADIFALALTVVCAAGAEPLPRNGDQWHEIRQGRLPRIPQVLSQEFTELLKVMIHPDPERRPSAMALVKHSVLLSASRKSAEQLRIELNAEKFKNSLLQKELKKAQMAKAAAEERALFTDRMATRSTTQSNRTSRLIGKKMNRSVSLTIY
# PROTOCOL_NOTES: Cellular degradation of Wee1 by immunoblot, 6-hour treatment of MOLT4 cells
# Type: cell-based
# Design: endogenous in cells; host or cells: MOLT4 (wild type; CRBN-/- as control)
# MEASUREMENT_CONDITIONS: MOLT-4, 1 μM, MOLT4 cells, approximated by immunoblot, read-out: Extent of Degradation of Wee1
MEASURED_ATTRIBUTE: percent Wee1 degradation at 1 µM

Prompt line: Name the recorded percent Wee1 degradation at 1 µM of the item C=CCn1c(=O)c2cnc(Nc3ccc(N4CCN(CCCCCCNc5cccc6c5C(=O)N(C5CCC(=O)NC5=O)C6=O)CC4)cc3)nc2n1-c1cccc(C(C)(C)O)n1 (centres unmarked) in your answer.
Response line: 25 to 50%

Prompt line: Name the recorded percent Wee1 degradation at 1 µM of the item C=CCn1c(=O)c2cnc(Nc3ccc(N4CCN(CCCNC(=O)CCOCCOCCNc5cccc6c5C(=O)N(C5CCC(=O)NC5=O)C6=O)CC4)cc3)nc2n1-c1cccc(C(C)(C)O)n1 (centres unmarked) in your answer.
Response line: > 50%

Prompt line: Name the recorded percent Wee1 degradation at 1 µM of the item C=CCn1c(=O)c2cnc(Nc3ccc(N(C)CCCCNc4ccc5c(c4)C(=O)N(C4CCC(=O)NC4=O)C5=O)cc3)nc2n1-c1cccc(C(C)(C)O)n1 (centres unmarked) in your answer.
Response line: > 50%

Prompt line: Name the recorded percent Wee1 degradation at 1 µM of the item C=CCn1c(=O)c2cnc(Nc3ccc(N4CCN(CCCNc5cccc6c5C(=O)N(C5CCC(=O)NC5=O)C6=O)CC4)cc3)nc2n1-c1cccc(OC)n1 (centres unmarked) in your answer.
Response line: > 50%

Prompt line: Name the recorded percent Wee1 degradation at 1 µM of the item C=CCn1c(=O)c2cnc(Nc3ccc(N(C)CCCCNc4cccc5c4C(=O)N(C4CCC(=O)NC4=O)C5=O)cc3)nc2n1-c1cccc(C(C)(C)O)n1 (centres unmarked) in your answer.
Response line: 25 to 50%

---

So I've got a bunch of compounds here, and I need their percent Wee1 degradation at 1 µM values.
# STUDY_TARGET: Wee1 (Homo sapiens, UniProt P30291)
# PROTOCOL_NOTES: Cellular degradation of Wee1 by immunoblot, 6-hour treatment of MOLT4 cells
# Assay type: cell-based
# Design: endogenous in cells; host or cells: MOLT4 (wild type; CRBN-/- as control)
# MEASUREMENT_CONDITIONS: MOLT-4, 1 μM, MOLT4 cells, approximated by immunoblot, read-out: Extent of Degradation of Wee1

Prompt line: Name the recorded percent Wee1 degradation at 1 µM of the item C=CCn1c(=O)c2cnc(Nc3ccc(N4CCN(C(=O)CCOCCOCCOCCN5CCN(Cc6ccc(COc7cccc8c7CN([C@H]7CCC(=O)NC7=O)C8=O)cc6)CC5)CC4)cc3)nc2n1-c1cccc(C(C)(C)O)n1 [Compound 9] in your answer.
Response line: > 50%

Prompt line: Name the recorded percent Wee1 degradation at 1 µM of the item C=CCn1c(=O)c2cnc(Nc3ccc(N4CCN(C(=O)CCCCCCCCOc5cccc6c5C(=O)N(C5CCC(=O)NC5=O)C6=O)CC4)cc3)nc2n1-c1cccc(C(C)(C)O)n1 (centres unmarked) [Compound 6] in your answer.
Response line: 25 to 50%

Prompt line: Name the recorded percent Wee1 degradation at 1 µM of the item C=CCn1c(=O)c2cnc(Nc3ccc(N4CCN(CCCNc5cccc6c5C(=O)N(C5CCC(=O)NC5=O)C6=O)CC4)cc3)nc2n1-c1cccc(C(C)(C)O)n1 (centres unmarked) [Compound 13] in your answer.
Response line: > 50%

Prompt line: Name the recorded percent Wee1 degradation at 1 µM of the item C=CCn1c(=O)c2cnc(Nc3ccc(N4CCN(CCCNC(=O)CCOCCOCCOCCOCCNc5cccc6c5C(=O)N(C5CCC(=O)NC5=O)C6=O)CC4)cc3)nc2n1-c1cccc(C(C)(C)O)n1 (centres unmarked) [Compound 8] in your answer.
Response line: > 50%

Prompt line: Name the recorded percent Wee1 degradation at 1 µM of the item C=CCn1c(=O)c2cnc(Nc3ccc(N4CCN(CCCNc5cccc6c5C(=O)N(C5CCC(=O)N(C)C5=O)C6=O)CC4)cc3)nc2n1-c1cccc(C(C)(C)O)n1 (centres unmarked) [Compound 20] in your answer.
Response line: < 25%

---

So I've got a bunch of compounds here, and I need their pIC50 values.
# STUDY_TARGET: PLK1 (Homo sapiens)
# Sequence (P53350 whole entry): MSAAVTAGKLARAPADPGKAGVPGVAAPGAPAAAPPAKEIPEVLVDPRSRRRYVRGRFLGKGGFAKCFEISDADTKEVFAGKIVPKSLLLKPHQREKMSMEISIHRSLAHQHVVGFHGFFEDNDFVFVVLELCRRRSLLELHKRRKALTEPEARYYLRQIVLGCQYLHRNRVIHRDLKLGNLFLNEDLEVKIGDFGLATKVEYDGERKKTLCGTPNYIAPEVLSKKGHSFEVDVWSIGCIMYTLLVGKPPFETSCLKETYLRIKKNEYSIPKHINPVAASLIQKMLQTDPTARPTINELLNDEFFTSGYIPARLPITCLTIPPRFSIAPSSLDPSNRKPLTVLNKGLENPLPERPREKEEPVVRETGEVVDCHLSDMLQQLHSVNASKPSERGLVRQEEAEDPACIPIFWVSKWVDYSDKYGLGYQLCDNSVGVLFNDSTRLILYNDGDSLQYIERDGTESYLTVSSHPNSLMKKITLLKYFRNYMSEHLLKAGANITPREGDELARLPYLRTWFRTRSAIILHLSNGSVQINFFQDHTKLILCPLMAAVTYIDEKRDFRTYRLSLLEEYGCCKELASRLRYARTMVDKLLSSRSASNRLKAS
The scale used: pIC50 is minus the common logarithm of the concentration in molar units.

Prompt line: Name the recorded pIC50 of the item C=CCn1c(=O)c2cnc(Nc3ccc(N4CCN(CCOCCOCCOCCNc5cccc6c5C(=O)N(C5CCC(=O)NC5=O)C6=O)CC4)cc3)nc2n1-c1cccc(C(C)(C)O)n1 (centres unmarked) in your answer.
Response line: 6.55

Prompt line: Name the recorded pIC50 of the item C=CCn1c(=O)c2cnc(Nc3ccc(N4CCN(CCCNC(=O)CCOCCOCCNc5cccc6c5C(=O)N(C5CCC(=O)NC5=O)C6=O)CC4)cc3)nc2n1-c1cccc(C(C)(C)O)n1 (centres unmarked) in your answer.
Response line: 6.93

Prompt line: Name the recorded pIC50 of the item C=CCn1c(=O)c2cnc(Nc3ccc(N4CCN(C)CC4)cc3)nc2n1-c1cccc(C(C)(C)O)n1 [AZD1775, reference compound] in your answer.
Response line: 6.67

Prompt line: Name the recorded pIC50 of the item C=CCn1c(=O)c2cnc(Nc3ccc(N4CCN(CCCNc5cccc6c5C(=O)N(C5CCC(=O)NC5=O)C6=O)CC4)cc3)nc2n1-c1cccc(C(C)(C)O)n1 (centres unmarked) in your answer.
Response line: 6.99

---

# STUDY_TARGET: Wee1 (Homo sapiens)
# PROTOCOL_NOTES: LanthaScreen FRET-based biochemical binding assay for Wee1
# MEASUREMENT_CONDITIONS: LanthaScreen Binding activity assay; average of two replicates ± SD
# Description: LanthaScreen™ assays were conducted for Wee1 in a 10-point dose response as performed in the commercial assay service by Life Technologies™. Z′-LYTE™ assays were conducted for PLK1 as performed in the commercial assay service by Life Technologies™ in a 10-point dose response using Km ATP concentrations.
MEASURED_ATTRIBUTE: IC50

Prompt line: Name the recorded IC50 of the item C=CCn1c(=O)c2cnc(Nc3ccc(N4CCN(CCCCCCNc5cccc6c5C(=O)N(C5CCC(=O)NC5=O)C6=O)CC4)cc3)nc2n1-c1cccc(C(C)(C)O)n1 (stereo not shown) in your answer.
Response line: 4.46 nM

Prompt line: Name the recorded IC50 of the item C=CCn1c(=O)c2cnc(Nc3ccc(N4CCN(CCCNc5cccc6c5C(=O)N(C5CCC(=O)N(C)C5=O)C6=O)CC4)cc3)nc2n1-c1cccc(C(C)(C)O)n1 (stereo not shown) in your answer.
Response line: 7.38 nM

Prompt line: Name the recorded IC50 of the item Nc1cccc2c1C(=O)N(C1CCC(=O)NC1=O)C2=O (stereo not shown) [Pomalidomide, reference compound] in your answer.
Response line: > 10000 nM

Prompt line: Name the recorded IC50 of the item C=CCn1c(=O)c2cnc(Nc3ccc(N4CCN(CCCNc5cccc6c5C(=O)N(C5CCC(=O)NC5=O)C6=O)CC4)cc3)nc2n1-c1cccc(C(C)(C)O)n1 (stereo not shown) in your answer.
Response line: 3.58 nM

---

So I've got a bunch of compounds here, and I need their percent Wee1 degradation at 1 µM values.
# STUDY_TARGET: Wee1 (Homo sapiens)
# PROTOCOL_NOTES: Cellular degradation of Wee1 by immunoblot, 6-hour treatment of MOLT4 cells
# Format: cell-based
# Parameters: endogenous in cells; host or cells: MOLT4 (wild type; CRBN-/- as control)
# MEASUREMENT_CONDITIONS: MOLT-4, 1 μM, MOLT4 cells, approximated by immunoblot, read-out: Extent of Degradation of Wee1

Prompt line: Name the recorded percent Wee1 degradation at 1 µM of the item C=CCn1c(=O)c2cnc(Nc3ccc(N4CCN(C(=O)CCOCCOCCOCCOCCNc5cccc6c5C(=O)N(C5CCC(=O)NC5=O)C6=O)CC4)cc3)nc2n1-c1cccc(C(C)(C)O)n1 (centres unmarked) [Compound 1] in your answer.
Response line: < 25%

Prompt line: Name the recorded percent Wee1 degradation at 1 µM of the item C=CCn1c(=O)c2cnc(Nc3ccc(N4CCN(C(=O)CCOCCOCCNc5cccc6c5CN(C5CCC(=O)NC5=O)C6=O)CC4)cc3)nc2n1-c1cccc(C(C)(C)O)n1 (centres unmarked) [Compound 4] in your answer.
Response line: 25 to 50%

Prompt line: Name the recorded percent Wee1 degradation at 1 µM of the item C=CCn1c(=O)c2cnc(Nc3ccc(N4CCN(CCCNC(=O)CCOCCOCCOCCN5CCN(Cc6ccc(COc7cccc8c7CN([C@H]7CCC(=O)NC7=O)C8=O)cc6)CC5)CC4)cc3)nc2n1-c1cccc(C(C)(C)O)n1 [Compound 10] in your answer.
Response line: 25 to 50%

Prompt line: Name the recorded percent Wee1 degradation at 1 µM of the item C=CCn1c(=O)c2cnc(Nc3ccc(N4CCN(C(=O)CCOCCOCCNc5cccc6c5C(=O)N(C5CCC(=O)NC5=O)C6=O)CC4)cc3)nc2n1-c1cccc(C(C)(C)O)n1 (centres unmarked) [Compound 3] in your answer.
Response line: > 50%

Prompt line: Name the recorded percent Wee1 degradation at 1 µM of the item C=CCn1c(=O)c2cnc(Nc3ccc(N4CCN(CCOCCOCCOCCNc5cccc6c5C(=O)N(C5CCC(=O)NC5=O)C6=O)CC4)cc3)nc2n1-c1cccc(C(C)(C)O)n1 (centres unmarked) [Compound 12] in your answer.
Response line: > 50%
